assay: Bioavailability of levosimendan following buccal and intravenous administration in dogs (plasma concentration); assay type: in vivo, beagle dogs; settings: beagle, dog, plasma, iv, 0.02 mg/kg, dog plasma, iv 0.02 mg/kg, 90 min, Dog 2

# molecule, display.unit, concentration at 90 min
rows = [
    ("CC1CC(=O)NN=C1c1ccc(NN=C(C#N)C#N)cc1 (single isomer, unassigned; (-)) [Levosimendan]", "ng/mL", 24),
]

----------
assay: Bioavailability of levosimendan following buccal and intravenous administration in dogs (plasma concentration); assay type: in vivo, beagle dogs; conditions: beagle, dog, plasma, other: buccal spray, 0.02 mg/kg, dog plasma, buccal spray 0.02 mg/kg, 10 min, Dog 3
readout: concentration at 10 min (ng/mL)

# compound, obs.value
records = [
    ("CC1CC(=O)NN=C1c1ccc(NN=C(C#N)C#N)cc1 (single isomer, unassigned; (-)) [Levosimendan]", 7.6),
]
